System Name: human Nav1.8 (hNav1.8) ion channel (Homo sapiens)
Construct: expressed in transfected cells
Experimental Protocol: Inhibition of human Nav1.8 stably expressed in SH-SY-5Y cells (membrane potential dye fluorescence assay)
Assay type: cell-based
Assay Conditions: SH-SY-5Y hNav1.8 cells; FLIPR membrane potential dye; 10 μM pyrethroid, 250 nM TTX; test concentration range 100 μM-0.05 μM; read-out: hNav1.8 IC50
Listed here: items and their measured pIC50.
# log scale: pIC50 equals minus log10 of the concentration in mol/L

O=C(Nc1ccc(C(F)(F)F)cc1)N1CC2CC1CN2C1Cc2ccc(F)cc2C1 (centres unmarked) [Example 130]	5.44

Would you kindly look at the next entry?
Reported pIC50 of Cc1ccccc1C(C)N1CC2CC1CN2C(=O)Nc1ccc(OC2CCN(Cc3ccccc3)CC2)cc1 (centres unmarked) [Example 40] : 5.70

###

System Name: human Nav1.8 (hNav1.8) ion channel (Homo sapiens)
Construct: expressed in transfected cells
Experimental Protocol: Inhibition of human Nav1.8 stably expressed in SH-SY-5Y cells (membrane potential dye fluorescence assay)
Type: cell-based
Assay Conditions: SH-SY-5Y hNav1.8 cells; FLIPR membrane potential dye; 10 μM pyrethroid, 250 nM TTX; test concentration range 100 μM-0.05 μM; read-out: hNav1.8 IC50
Readout Name: IC50 (µM)
Write the number in µM without appending the unit.

CC(c1ccc(Cl)cc1Cl)N1CC2CC1CN2C(=O)Nc1ccc(C(F)(F)F)cc1 (stereo not shown) [Example 120]	24.5
CC(c1ccc(Cl)cc1Cl)N1CC2CC1CN2C(=O)Nc1ccc(Oc2ccc(Cl)cc2)cc1 (stereo not shown) [Example 121]	22.4
Cc1ccsc1CN1CC2CC1CN2C(=O)Nc1ccc(Oc2ccccc2)nc1 (stereo not shown)	3.74

Would you kindly look at the next entry?
Reported IC50 of CC(c1ccccc1C(F)(F)F)N1CC2CC1CN2C(=O)Nc1ccc(Oc2ccccc2)cc1 (single isomer, unassigned) [Example 62] : 17.2

###

System Name: human Nav1.8 (hNav1.8) ion channel (Homo sapiens, UniProt Q9Y5Y9)
Construct: expressed in transfected cells
Sequence (Q9Y5Y9 whole entry): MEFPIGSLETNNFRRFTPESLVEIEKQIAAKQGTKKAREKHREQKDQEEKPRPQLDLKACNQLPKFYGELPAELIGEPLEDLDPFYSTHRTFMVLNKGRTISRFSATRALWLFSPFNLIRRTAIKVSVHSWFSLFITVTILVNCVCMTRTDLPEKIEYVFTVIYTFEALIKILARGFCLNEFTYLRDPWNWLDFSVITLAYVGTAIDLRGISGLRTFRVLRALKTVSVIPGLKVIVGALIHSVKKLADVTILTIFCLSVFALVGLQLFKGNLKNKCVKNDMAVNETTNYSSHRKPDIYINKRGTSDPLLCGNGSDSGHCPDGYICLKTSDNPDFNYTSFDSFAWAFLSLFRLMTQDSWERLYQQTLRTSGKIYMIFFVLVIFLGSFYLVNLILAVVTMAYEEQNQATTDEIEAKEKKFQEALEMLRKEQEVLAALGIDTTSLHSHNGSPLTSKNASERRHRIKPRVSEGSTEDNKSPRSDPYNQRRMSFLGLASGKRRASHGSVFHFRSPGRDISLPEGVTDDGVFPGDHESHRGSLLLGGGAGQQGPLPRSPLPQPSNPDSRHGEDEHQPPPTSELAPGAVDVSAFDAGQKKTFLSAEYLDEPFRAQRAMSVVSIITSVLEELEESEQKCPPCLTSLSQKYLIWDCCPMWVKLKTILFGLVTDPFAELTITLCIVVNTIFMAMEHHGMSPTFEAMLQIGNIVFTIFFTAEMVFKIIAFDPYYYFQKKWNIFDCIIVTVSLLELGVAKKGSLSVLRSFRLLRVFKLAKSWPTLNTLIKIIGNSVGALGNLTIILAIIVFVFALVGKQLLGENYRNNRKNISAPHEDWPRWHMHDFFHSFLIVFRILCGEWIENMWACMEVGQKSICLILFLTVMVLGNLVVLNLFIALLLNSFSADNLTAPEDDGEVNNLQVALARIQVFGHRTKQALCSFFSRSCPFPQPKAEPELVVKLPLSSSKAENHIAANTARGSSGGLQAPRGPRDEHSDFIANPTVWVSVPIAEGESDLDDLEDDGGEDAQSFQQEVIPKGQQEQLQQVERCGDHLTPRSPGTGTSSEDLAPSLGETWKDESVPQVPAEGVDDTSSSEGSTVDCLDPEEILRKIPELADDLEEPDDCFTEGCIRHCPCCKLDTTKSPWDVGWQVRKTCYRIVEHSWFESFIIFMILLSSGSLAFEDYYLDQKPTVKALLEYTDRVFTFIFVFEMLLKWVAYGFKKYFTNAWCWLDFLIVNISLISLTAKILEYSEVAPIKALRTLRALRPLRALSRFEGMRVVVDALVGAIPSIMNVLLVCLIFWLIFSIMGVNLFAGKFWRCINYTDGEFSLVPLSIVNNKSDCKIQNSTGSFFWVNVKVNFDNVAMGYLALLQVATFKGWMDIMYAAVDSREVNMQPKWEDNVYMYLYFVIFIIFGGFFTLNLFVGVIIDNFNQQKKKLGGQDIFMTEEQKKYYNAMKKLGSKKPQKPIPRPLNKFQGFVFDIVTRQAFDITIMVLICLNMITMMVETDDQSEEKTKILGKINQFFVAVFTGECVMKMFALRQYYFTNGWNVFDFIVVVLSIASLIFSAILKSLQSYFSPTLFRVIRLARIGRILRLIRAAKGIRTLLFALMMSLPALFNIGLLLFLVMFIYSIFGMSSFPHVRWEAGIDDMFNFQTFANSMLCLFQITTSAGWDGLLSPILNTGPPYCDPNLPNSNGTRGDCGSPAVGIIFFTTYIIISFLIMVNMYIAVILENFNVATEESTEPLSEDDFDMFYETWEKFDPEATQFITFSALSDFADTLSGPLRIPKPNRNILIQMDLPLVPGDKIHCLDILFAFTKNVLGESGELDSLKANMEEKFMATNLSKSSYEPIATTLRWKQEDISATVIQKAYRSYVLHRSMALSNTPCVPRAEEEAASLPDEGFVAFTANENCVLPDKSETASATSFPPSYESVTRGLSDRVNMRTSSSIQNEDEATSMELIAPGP
Experimental Protocol: Inhibition of human Nav1.8 stably expressed in SH-SY-5Y cells (membrane potential dye fluorescence assay)
Type: cell-based
Assay Conditions: SH-SY-5Y hNav1.8 cells; FLIPR membrane potential dye; 10 μM pyrethroid, 250 nM TTX; test concentration range 100 μM-0.05 μM; read-out: hNav1.8 IC50
pIC50: −log10 of the molar value.
# binarize pIC50: threshold 6 inclusive, high side rule met, low side rule not met

Please tell me: is the compound O=C(Nc1ccc(C(F)(F)F)cc1)N1CC2CC1CN2C1Cc2ccccc2C1 (centres unmarked) [Example 99] at or over 6 in terms of pIC50?
rule not met

Please tell me: is the compound C=CCOC(=O)NCCOc1ccc(NC(=O)N2CC3CC2CN3C(C)c2ccccc2C)cc1 (centres unmarked) [Example 28] at or over 6 in terms of pIC50?
rule not met

Please tell me: is the compound Cc1ccc(C(C)N2CC3CC2CN3C(=O)Nc2ccc(Oc3ccc(F)cc3)cc2)c(C)c1 (centres unmarked) [Example 116] at or over 6 in terms of pIC50?
rule met

###

Listed here: items and their measured IC50.
System Name: human Nav1.8 (hNav1.8) ion channel (Homo sapiens, UniProt Q9Y5Y9)
Construct: expressed in transfected cells
Experimental Protocol: Inhibition of human Nav1.8 stably expressed in SH-SY-5Y cells (membrane potential dye fluorescence assay)
Type: cell-based
Assay Conditions: SH-SY-5Y hNav1.8 cells; FLIPR membrane potential dye; 10 μM pyrethroid, 250 nM TTX; test concentration range 100 μM-0.05 μM; read-out: hNav1.8 IC50
Write the number in nM without appending the unit.

Cc1ccccc1C(C)N1CC2CC1CN2C(=O)Nc1ccc(OCc2ccccc2)cc1 (centres unmarked) [Example 31]	600

Reported IC50 of CC(Cc1ccccc1Cl)N1CC2CC1CN2C(=O)Nc1ccc(C(F)(F)F)cc1 (centres unmarked) : 440

Reported IC50 of Cc1ccsc1C(C)N1CC2CC1CN2C(=O)Nc1ccc(C(F)(F)F)cc1 (centres unmarked) : 3040

Reported IC50 of CC(c1ccccc1C(F)(F)F)N1CC2CC1CN2C(=O)Nc1cccc(Oc2ccccc2)c1 (centres unmarked) [Example 63] : 6100

Reported IC50 of CC(c1ccccc1Cl)N1CC2CC1CN2C(=O)Nc1ccc(Oc2ccc(Cl)cc2)cc1 (centres unmarked) [Example 129] : 3800

Reported IC50 of CC(c1ccc(F)cc1)N1CC2CC1CN2C(=O)Nc1cccc(C(F)(F)F)c1 (centres unmarked) [Example 50] : 2620

Reported IC50 of CCOCCOc1ccc(NC(=O)N2CC3CC2CN3C(C)c2ccccc2C)cc1 (centres unmarked) : 28000

Reported IC50 of Cc1ccc(Oc2ccc(NC(=O)N3CC4CC3CN4C(C)c3ccccc3Cl)cc2)cc1 (centres unmarked) [Example 140] : 1230
